Assay target: HER2 InsYVMA (A775_G776insYVMA) transformed Ba/F3 cells (Homo sapiens, UniProt P04626, INS775YVMA)
Construct: expressed in transfected cells; host or cells: Ba/F3
Sequence (P04626 with tags, fused parts or gaps INS775YVMA): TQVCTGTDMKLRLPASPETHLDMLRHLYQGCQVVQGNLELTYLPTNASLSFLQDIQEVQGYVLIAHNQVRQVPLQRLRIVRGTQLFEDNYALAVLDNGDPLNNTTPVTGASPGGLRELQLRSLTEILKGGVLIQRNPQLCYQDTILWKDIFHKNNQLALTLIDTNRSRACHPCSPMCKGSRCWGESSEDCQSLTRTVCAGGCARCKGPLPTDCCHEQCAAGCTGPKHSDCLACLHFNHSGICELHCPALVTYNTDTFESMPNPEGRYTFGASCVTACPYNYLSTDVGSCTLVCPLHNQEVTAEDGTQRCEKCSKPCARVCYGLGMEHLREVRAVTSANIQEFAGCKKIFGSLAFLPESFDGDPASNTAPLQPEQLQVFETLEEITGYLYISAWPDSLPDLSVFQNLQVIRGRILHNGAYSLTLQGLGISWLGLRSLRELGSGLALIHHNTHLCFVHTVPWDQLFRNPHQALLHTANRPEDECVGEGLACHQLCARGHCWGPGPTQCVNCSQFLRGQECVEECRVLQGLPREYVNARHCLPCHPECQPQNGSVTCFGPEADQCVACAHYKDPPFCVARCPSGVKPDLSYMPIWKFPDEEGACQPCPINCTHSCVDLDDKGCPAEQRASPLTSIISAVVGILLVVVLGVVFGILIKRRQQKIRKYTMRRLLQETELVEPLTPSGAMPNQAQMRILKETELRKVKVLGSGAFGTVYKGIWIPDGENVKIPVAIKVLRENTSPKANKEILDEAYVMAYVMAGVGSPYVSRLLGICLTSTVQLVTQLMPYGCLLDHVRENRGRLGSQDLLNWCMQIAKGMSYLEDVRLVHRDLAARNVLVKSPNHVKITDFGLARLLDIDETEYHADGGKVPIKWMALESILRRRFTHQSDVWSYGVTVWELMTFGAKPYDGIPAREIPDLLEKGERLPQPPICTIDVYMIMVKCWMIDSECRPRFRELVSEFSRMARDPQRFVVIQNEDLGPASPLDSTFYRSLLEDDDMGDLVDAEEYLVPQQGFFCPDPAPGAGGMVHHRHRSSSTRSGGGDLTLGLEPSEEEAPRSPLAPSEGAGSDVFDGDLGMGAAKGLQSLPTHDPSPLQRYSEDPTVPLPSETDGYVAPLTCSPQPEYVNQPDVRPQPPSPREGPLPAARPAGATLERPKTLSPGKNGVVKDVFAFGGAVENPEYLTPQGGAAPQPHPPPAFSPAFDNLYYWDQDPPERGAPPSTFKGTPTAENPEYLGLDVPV
Method summary: Proliferation inhibition assay, HER2 InsYVMA transformed Ba/F3 cells
Type: cell-based
Protocol conditions: MTS assay, 72 hours, Table 10 key
Measure: EC50

C=CC(=O)Nc1ccc(OC)c(Nc2ncc3cc(Oc4ccc(F)cc4F)c(=O)n(CCN(C)C)c3n2)c1 : < 0.2 µM
C=CC(=O)Nc1cc(Nc2ncc3cc(Oc4ccc(F)cc4F)c(=O)n(C)c3n2)ccc1N(C)CCN(C)C : < 0.2 µM
C=CC(=O)Nc1cc(Nc2ncc3cc(Oc4ccccc4)c(=O)n(C)c3n2)c(OC)cc1N(C)CCN(C)C : < 0.2 µM

Continue with the next molecule.
Reported EC50 for `C=CC(=O)Nc1cc(Nc2ncc3cc(Oc4ccc(F)cc4F)c(=O)n(C)c3n2)ncc1N(C)CCN(C)C` was 0.6 to 1 µM

====

Assign pEC50 to each entry below.
Assay target: wild-type HER2 transformed Ba/F3 cells (Homo sapiens)
Construct: expressed in transfected cells; host or cells: Ba/F3
Sequence (P04626 23-1255): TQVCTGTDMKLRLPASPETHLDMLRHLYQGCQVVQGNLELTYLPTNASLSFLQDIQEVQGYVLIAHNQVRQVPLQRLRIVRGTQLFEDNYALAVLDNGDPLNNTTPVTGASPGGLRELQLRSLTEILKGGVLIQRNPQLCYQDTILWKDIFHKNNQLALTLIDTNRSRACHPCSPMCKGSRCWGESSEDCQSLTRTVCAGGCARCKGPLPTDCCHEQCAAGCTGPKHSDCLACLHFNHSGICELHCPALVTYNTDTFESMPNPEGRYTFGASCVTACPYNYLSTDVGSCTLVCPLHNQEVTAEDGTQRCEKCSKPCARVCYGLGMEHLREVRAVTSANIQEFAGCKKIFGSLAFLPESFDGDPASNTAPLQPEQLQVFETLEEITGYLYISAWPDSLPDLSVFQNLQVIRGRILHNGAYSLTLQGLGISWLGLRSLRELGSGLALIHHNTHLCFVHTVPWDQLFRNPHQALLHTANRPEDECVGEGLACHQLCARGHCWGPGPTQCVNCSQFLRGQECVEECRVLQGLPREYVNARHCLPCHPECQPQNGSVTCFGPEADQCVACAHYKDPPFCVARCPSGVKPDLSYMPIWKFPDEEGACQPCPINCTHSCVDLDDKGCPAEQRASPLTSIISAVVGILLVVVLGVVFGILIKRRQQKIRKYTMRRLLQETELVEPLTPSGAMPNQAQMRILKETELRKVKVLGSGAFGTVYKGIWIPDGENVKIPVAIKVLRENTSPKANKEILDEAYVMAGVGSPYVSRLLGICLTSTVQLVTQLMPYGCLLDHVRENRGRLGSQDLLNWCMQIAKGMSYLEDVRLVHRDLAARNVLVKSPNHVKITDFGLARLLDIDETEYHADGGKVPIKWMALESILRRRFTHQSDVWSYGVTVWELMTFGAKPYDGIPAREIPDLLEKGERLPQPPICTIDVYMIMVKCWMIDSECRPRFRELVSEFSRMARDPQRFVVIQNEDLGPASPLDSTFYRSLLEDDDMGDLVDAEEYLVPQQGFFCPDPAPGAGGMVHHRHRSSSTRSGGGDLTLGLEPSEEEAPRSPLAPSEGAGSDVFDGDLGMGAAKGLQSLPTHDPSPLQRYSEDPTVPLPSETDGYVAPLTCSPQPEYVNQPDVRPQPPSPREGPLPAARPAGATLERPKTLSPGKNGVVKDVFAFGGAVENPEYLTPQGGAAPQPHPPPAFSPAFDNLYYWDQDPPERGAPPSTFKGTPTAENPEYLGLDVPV
Method summary: Proliferation inhibition assay, wild-type HER2 transformed Ba/F3 cells
Type: cell-based
Protocol conditions: MTS assay, 72 hours, Table 10 key
pEC50: −log10 of the molar value.

C=CC(=O)Nc1cccc(-n2c(=O)c(Oc3cc(F)c(F)cc3F)cc3cnc(Nc4cnn(C)c4)nc32)c1 : > 6.70
C=CC(=O)Nc1cccc(-n2c(=O)c(Oc3ccc(F)c(Cl)c3)cc3cnc(Nc4cnn(C)c4)nc32)c1 : > 6.70
C=CC(=O)Nc1cc(Nc2ncc3cc(Oc4ccc(F)cc4F)c(=O)n(C)c3n2)ccc1CCCN(C)C : > 6.70

Continue with the next compound.
The compound `C=CC(=O)Nc1cc(Nc2ncc3cc(Oc4ccc(F)cc4F)c(=O)n(C)c3n2)ncc1N(C)CCN(C)C` , tested on wild-type HER2 transformed Ba/F3 cells (Homo sapiens), showed pEC50 of 6.22 to 6.70

====

Assay target: HER2 InsYVMA (A775_G776insYVMA) transformed Ba/F3 cells (Homo sapiens, UniProt P04626, INS775YVMA)
Construct: expressed in transfected cells; host or cells: Ba/F3
Method summary: Proliferation inhibition assay, HER2 InsYVMA transformed Ba/F3 cells
Type: cell-based
Protocol conditions: MTS assay, 72 hours, Table 10 key
pEC50: −log10 of the molar value.
Measure: pEC50

Completed entries (count: 3):
C=CC(=O)Nc1cc(Nc2ncc3cc(Oc4ccc(F)cc4F)c(=O)n(C)c3n2)cnc1N(C)CCN(C)C [Compound 113] : > 6.70
C=CC(=O)Nc1cc(Nc2ncc3cc(Oc4ccc(C)cc4)c(=O)n(C)c3n2)c(OC)cc1N(C)CCN(C)C [Compound 131] : > 6.70
C=CC(=O)Nc1cccc(-n2c(=O)c(Oc3ccc(F)c(Cl)c3)cc3cnc(Nc4cnn(C)c4)nc32)c1 [Compound 88] : > 6.70

I'm hoping you can list pEC50 for every compound here, please.
1. C=CC(=O)Nc1cc(Nc2ncc3cc(Oc4ccc(F)cc4F)c(=O)[nH]c3n2)c(OC)cc1N(C)CCN(C)C [Compound 99]
2. C=CC(=O)Nc1cc(Nc2ncc3cc(Oc4ccc(F)cc4F)c(=O)n(C)c3n2)c(OC)cc1C1CCNCC1 [Compound 127]
3. C=CC(=O)Nc1cc(Nc2ncc3cc(Oc4ccc(F)cc4F)c(=O)n(CC(F)(F)F)c3n2)c(OC)cc1N(C)CCN(C)C [Compound 85]
4. C=CC(=O)Nc1cc(Nc2ncc3cc(Oc4ccc(F)cc4)c(=O)n(C)c3n2)ccc1N(C)CCN(C)C [Compound 129]
5. C=CC(=O)Nc1cc(Nc2ncc3cc(Oc4ccc(F)cc4F)c(=O)n(C)c3n2)c(OC)cc1C1CCN(C)CC1 [Compound 128]
6. C=CC(=O)N1C[C@H](Cn2c(=O)c(Oc3ccc(F)cc3F)cc3cnc(NC(C)=O)nc32)[C@@H](OC)C1 [Compound 112]

Reply text:
> 6.70
< 6.00
> 6.70
> 6.70
> 6.70
6.22 to 6.70
